Biological target: T1, Mouse BSSL, recombinant (mouse, UniProt Q64285 21-599)
T1 construct: Bought (R&D Systems, Cat. no 5658-CE); also called mBSSL; murine BSSL
T1 sequence: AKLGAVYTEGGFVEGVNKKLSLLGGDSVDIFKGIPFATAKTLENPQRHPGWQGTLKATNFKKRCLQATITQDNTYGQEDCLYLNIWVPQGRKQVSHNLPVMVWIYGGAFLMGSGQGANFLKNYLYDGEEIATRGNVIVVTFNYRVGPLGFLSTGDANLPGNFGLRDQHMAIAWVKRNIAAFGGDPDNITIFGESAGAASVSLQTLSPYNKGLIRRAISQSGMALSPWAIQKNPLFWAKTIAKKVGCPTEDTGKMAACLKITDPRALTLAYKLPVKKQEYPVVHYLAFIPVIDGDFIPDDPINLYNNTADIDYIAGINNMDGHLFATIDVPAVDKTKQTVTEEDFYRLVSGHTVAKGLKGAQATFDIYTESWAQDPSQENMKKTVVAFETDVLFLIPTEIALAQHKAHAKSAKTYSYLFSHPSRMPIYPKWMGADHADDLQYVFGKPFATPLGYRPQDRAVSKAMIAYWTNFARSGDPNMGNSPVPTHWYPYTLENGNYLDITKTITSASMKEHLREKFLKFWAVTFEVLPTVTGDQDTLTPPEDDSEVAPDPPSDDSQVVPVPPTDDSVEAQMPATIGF
Assay: SPR steady state, hIgG4 S228P captured by anti-Fab
assay-endpoint: Kd (nM)
Supply the numeric figure in nM, leaving out any unit text.

Answered examples (3):
{"binder": "S-SL048-104 hIgG4 S228P (antibody, V domains shown, Tested as human IgG4 S228P) VH: QVQLVQSGAEVKKPGASVKVSCKASGYTFTSYNMHWVRQAPGQGLEWMGVINPGDGATSYDQKFKGRVTMTRDTSTSTVYMELSSLRSEDTAVYYCARDYYGSSPLGYWGQGTLVTVSS VL: DIQMTQSPSSLSASVGDRVTITCSASSSISYLHWYQQKPGKAPKLLIYAASRLASGVPSRFSGSGSGTDFTLTISSLQPEDFATYYCHQRSSTPTFGQGTKLEIK", "readout-number": 111}
{"binder": "S-SL048-109 hIgG4 S228P (antibody, V domains shown, Tested as human IgG4 S228P) VH: QVQLVQSGAEVKKPGASVKVSCKASGYTFTSYNMHWVRQAPGQGLEWMGVINPSDGATSYAQKFKGRVTMTRDTSTSTVYMELSSLRSEDTAVYYCARDYYGSSPLGYWGQGTLVTVSS VL: DIQMTQSPSSLSASVGDRVTITCRASPSISYLNWYQQKPGKAPKLLIYATSRLASGVPSRFSGSGSGTDFTLTISSLQPEDFATYYCQQRSSSPTFGQGTKLEIK", "readout-number": 353}
{"binder": "S-SL048-103 hIgG4 S228P (antibody, V domains shown, Tested as human IgG4 S228P) VH: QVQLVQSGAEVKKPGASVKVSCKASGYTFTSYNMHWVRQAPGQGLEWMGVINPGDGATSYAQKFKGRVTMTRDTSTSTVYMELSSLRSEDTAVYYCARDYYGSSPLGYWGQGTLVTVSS VL: DIQMTQSPSSLSASVGDRVTITCRASSSISYMHWYQQKPGKAPKLLIYATSSLASGVPSRFSGSGSGTDFTLTISSLQPEDFATYYCHQRSSSPTFGQGTKLEIK", "readout-number": 199}

Note to self: Kd recorded for S-SL048-131 hIgG4 S228P (antibody, V domains shown, Tested as human IgG4 S228P) VH: QVQLVQSGAEVKKPGASVKVSCKASGYTFTSYNMHWVRQAPGQGLEWIGVINPGDGATSYAQKFKGRVTMTRDTSTSTVYMELSSLRSEDTAVYYCARDYYGSSPLGYWGQGTLVTVSS VL: DIQMTQSPSSLSASVGDRVTITCRASPSISYLNWYQQKPGKAPKLLIYAASKLASGVPSRFSGSGSGTDFTLTISSLQPEDFATYYCHQRSSSPTFGQGTKLEIK was 63

Note to self: Kd recorded for S-SL048-118 hIgG4 S228P (antibody, V domains shown, also called clone 118; mAb118) VH: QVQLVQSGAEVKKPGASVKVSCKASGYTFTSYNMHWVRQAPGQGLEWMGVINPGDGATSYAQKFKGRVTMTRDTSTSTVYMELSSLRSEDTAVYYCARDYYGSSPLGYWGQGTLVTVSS VL: DIQMTQSPSSLSASVGDRVTITCSASPSISYMNWYQQKPGKAPKLLIYATSSLPSGVPSRFSGSGSGTDFTLTISSLQPEDFATYYCHQRSSSPTFGQGTKLEIKR was 95

Note to self: Kd recorded for S-SL048-43 hIgG4 S228P (antibody, V domains shown, Tested as human IgG4 S228P) VH: QVQLVQSGAEVKKPGASVKVSCKASGYTFTSYNMHWVRQAPGQGLEWMGVINPGDGATSYTQKFQGRVTMTRDTSTSTVYMELSSLRSEDTAVYYCARDYYGSSPLGYWGQGTLVTVSS VL: DIQMTQSPSSLSASVGDRVTITCRASPSISYMNWYQQKPGKAPKLLIYAASSLPSGVPSRFSGSGSGTDFTLTISSLQPEDFATYYCQQRSSSPTFGQGTKLEIK was 137

Note to self: Kd recorded for S-SL048-12 hIgG4 S228P (antibody, V domains shown, Tested as human IgG4 S228P) VH: QVQLVQSGAEVKKPGASVKVSCKASGYTFTSYNMHWVRQAPGQGLEWMGVINPSDGATSYTQKFQGRVTMTRDTSTSTVYMELSSLRSEDTAVYYCARDYYGSSPLGYWGQGTLVTVSS VL: DIQMTQSPSSLSASVGDRVTITCSASSSISYMHWYQQKPGKAPKLLIYAASRLASGVPSRFSGSGSGTDFTLTISSLQPEDFATYYCHQRSSTSTFGQGTKLEIK was 57

Note to self: Kd recorded for S-SL048-66 hIgG4 S228P (antibody, V domains shown, Tested as human IgG4 S228P) VH: QVQLVQSGAEVKKPGASVKVSCKASGYTFTSYNMHWVRQAPGQGLEWMGVINPGDGATSYNQKFKGRVTMTRDTSTSTVYMELSSLRSEDTAVYYCARDYYGSSPLGYWGQGTLVTVSS VL: DIQMTQSPSSLSASVGDRVTITCSASQSISYMNWYQQKPGKAPKLLIYDASSLASGVPSRFSGSGSGTDFTLTISSLQPEDFATYYCHQRSSTPTFGQGTKLEIK was 83

Note to self: Kd recorded for S-SL048-45 hIgG4 S228P (antibody, V domains shown, Tested as human IgG4 S228P) VH: QVQLVQSGAEVKKPGASVKVSCKASGYTFTSYNMHWVRQAPGQGLEWMGVINPSDGATSYTQKFQGRVTMTRDTSTSTVYMELSSLRSEDTAVYYCARDYYGSSPLGYWGQGTLVTVSS VL: DIQMTQSPSSLSASVGDRVTITCRASQSISYLHWYQQKPGKAPKLLIYAASRLASGVPSRFSGSGSGTDFTLTISSLQPEDFATYYCHQRSSTPTFGQGTKLEIK was 82

Note to self: Kd recorded for S-SL048-46 hIgG4 S228P (antibody, V domains shown, also called clone 46; mAb46) VH: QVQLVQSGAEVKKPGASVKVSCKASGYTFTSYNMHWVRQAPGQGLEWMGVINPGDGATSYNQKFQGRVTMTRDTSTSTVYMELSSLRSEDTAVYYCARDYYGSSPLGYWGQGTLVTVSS VL: DIQMTQSPSSLSASVGDRVTITCRASSSISYLNWYQQKPGKAPKLLIYAASSLASGVPSRFSGSGSGTDFTLTISSLQPEDFATYYCHQRSSSPTFGQGTKLEIKR was 24

Note to self: Kd recorded for S-SL048-107 hIgG4 S228P (antibody, V domains shown, Tested as human IgG4 S228P) VH: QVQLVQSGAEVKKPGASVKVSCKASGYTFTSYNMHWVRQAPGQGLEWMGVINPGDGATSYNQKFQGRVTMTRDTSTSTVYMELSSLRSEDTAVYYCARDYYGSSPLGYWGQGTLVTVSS VL: DIQMTQSPSSLSASVGDRVTITCRASPSISYLNWYQQKPGKAPKLLIYATSSLPSGVPSRFSGSGSGTDFTLTISSLQPEDFATYYCQQRSSSPTFGQGTKLEIK was 98

The measurements presented in this section are drawn from patent US20220267469A1.
